- tested.target: 14C-HIgG (human)
- assay.notes: second round of secondary screening, batch, non-competitive (PBS)
No end group written: not given here.
Where Bound equals or exceeds 10%, the correct label is Met; where it does not, the label is Not met.

Qu. Record HVHYYWA-{Toyopearl AF‑Amino‑650 resin} ; criterion: Bound no lower than 10%. Met?
Ans. Met

Qu. Record HWGPTKA-{Toyopearl AF‑Amino‑650 resin} ; criterion: Bound no lower than 10%. Met?
Ans. Met

Qu. Record KGEA-{Toyopearl AF‑Amino‑650 resin} ; criterion: Bound no lower than 10%. Met?
Ans. Not met

Qu. Record HIWA-{Toyopearl AF‑Amino‑650 resin} ; criterion: Bound no lower than 10%. Met?
Ans. Not met

Qu. Record HYFKFDA-{Toyopearl AF‑Amino‑650 resin} ; criterion: Bound no lower than 10%. Met?
Ans. Met

Qu. Record HWIDPLA-{Toyopearl AF‑Amino‑650 resin} ; criterion: Bound no lower than 10%. Met?
Ans. Not met
